test-system: ACE2 (human, UniProt Q9BYF1 18-740)
Sequence (Q9BYF1 18-740 limits assumed): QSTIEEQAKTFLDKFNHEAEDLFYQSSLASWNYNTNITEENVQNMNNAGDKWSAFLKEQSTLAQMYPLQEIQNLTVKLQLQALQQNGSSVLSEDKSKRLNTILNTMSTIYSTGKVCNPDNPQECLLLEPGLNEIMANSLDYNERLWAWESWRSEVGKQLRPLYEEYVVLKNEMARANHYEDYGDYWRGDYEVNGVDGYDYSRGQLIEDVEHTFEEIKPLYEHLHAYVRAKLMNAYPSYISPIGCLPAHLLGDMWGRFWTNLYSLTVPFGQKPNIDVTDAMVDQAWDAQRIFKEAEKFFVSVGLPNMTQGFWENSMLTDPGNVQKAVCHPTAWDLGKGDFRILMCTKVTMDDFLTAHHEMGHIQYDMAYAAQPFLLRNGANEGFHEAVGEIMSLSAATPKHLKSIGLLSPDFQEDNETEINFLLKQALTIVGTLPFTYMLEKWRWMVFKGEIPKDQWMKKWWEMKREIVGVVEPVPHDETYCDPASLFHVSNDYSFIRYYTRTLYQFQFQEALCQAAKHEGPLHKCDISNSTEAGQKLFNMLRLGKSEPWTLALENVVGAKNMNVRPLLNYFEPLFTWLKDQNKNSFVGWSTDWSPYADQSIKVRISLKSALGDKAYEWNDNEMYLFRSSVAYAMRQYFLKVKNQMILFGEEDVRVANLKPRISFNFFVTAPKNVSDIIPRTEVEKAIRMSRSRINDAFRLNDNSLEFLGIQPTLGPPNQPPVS
assay-endpoint: koff
Please answer using a numeric value trailed by its unit.

binder: ACE2 variant antibody 4-95 (VHH) VHH: EVQLVESGGGLVQPGGSLRLSCAASGRTFGDYIMGWFRQAPGKEREIVAAINWSAGYTAYADSVKGRFTISADNSKNTAYLQMNSLKPEDTAVYYCATAPPLFCWHFDHWGQGTLVTVSS
koff: 0.00772 s⁻¹

With those in mind, consider the next binder.
Value lookup for koff; key = ACE2 variant antibody 4-74 (VHH) VHH: EVQLVESGGGLVQPGGSLRLSCAASGLTFSDDTMGWFRQAPGKEREFVAAVSWSGGNTYYADSVKGRFTISADNSKNTAYLQMNSLKPEDTAVYYCATDPPLFWGQGTLVTVSS 0.00285 s⁻¹
